Data origin, for the record: PubChem BioAssay (NCI)

# Tested on: HCT-116 colon
# Protocol notes: NCI tumour cell line growth inhibition, 48 h
Measurement label: TGI

According to the records, this compound COC(CC1(OC)OC(=O)C=C1N)OC (stereo not given) displays TGI of > 100 µM

The compound identified as Oc1ccc(-c2nc3cc(F)ccc3s2)cc1 registered its TGI at 42.1 µM

Record NS(=O)(=O)c1nnc(NS(=O)(=O)c2ccc(Cl)cc2)s1 . Reported TGI: > 100 µM

For record Cc1c2cc[n+](C)cc2c(C)c2c1oc1ccccc12 the listed TGI is 24.5 µM

GET /value?item= CC/C(=N/N=C(N)N)c1ccc(NC(=O)Nc2ccc(/C(CC)=N/N=C(N)N)cc2)cc1 &field=TGI returns 25.5 µM

The measured TGI associated with COC(=O)N/N=C(/c1nc2ccc([N+](=O)[O-])cc2[nH]c1=O)C(O)c1ccc(OC)c(OC)c1 (stereo not given) reads > 100 µM

Data point: COc1cc(-c2nn(-c3cccc(NC(=O)CCN4CCN(C)CC4)c3)cc2-c2ccncc2)ccc1Cl ; TGI = 4.17 µM

For CNCCN(C)Cc1cn[nH]c1-c1ccc(OC2CC(OCCC3CCOCC3)C2)cc1 (stereo not given) the compound record lists TGI as > 100 µM

// TGI lookup, compound = Cc1cc2c(cc1Cl)SC(C(=O)c1ccc(Cl)c(Cl)c1)NS2(=O)=O (stereo not given) , result: 40.8 µM

Memo: CCOC(=O)CC(=O)CSc1c(-c2ccccc2)c(=O)n(-c2ccccc2)c(=S)n1-c1ccccc1 , reported TGI: > 100 µM

###

# System: CAKI-1 renal
# Protocol notes: NCI tumour cell line growth inhibition, 48 h
Where a SMILES comes first, the peptide text is derived from it. [ ]: non-standard residue; d: D form. The star is where a group is joined. Phe(4-NO2) = N[CH](Cc1ccc([N+](=O)[O-])cc1)C(=O)O; Boc = CC(C)(C)OC(=O)*
Measurement label: TGI

Value (TGI, CAKI-1 renal) for record N=C(N)SCc1cccc([N+](=O)[O-])c1 = 74.1 µM

Readout TGI for CC1(O)COCCCCOc2c(CN)cccc2NC(=O)c2nc(cnc2N)-c2ccc(cc2)S(=O)(=O)C(C)(C)C1 (centres undefined) , test system CAKI-1 renal, was 2.53 µM

Observed TGI on CAKI-1 renal, entry N#CC1C(=O)NC(=O)C1=O (centres undefined) , equals > 100 µM

For the compound CCOP(=O)(OCC)C(Nc1cccc(F)c1)c1ccc(N(C)C)cc1 (centres undefined) , the measured TGI on CAKI-1 renal was > 100 µM

Case COC(=O)/C=C(\C)CC/C=C(\C)CCC(O)C(C)(C)O (centres undefined) , CAKI-1 renal, TGI recorded as 48.5 µM

Observed TGI, CAKI-1 renal, CCCCCCSc1nc(COC(=O)NC)c(COC(=O)NC)n1C : > 100 µM

Bench note, CAKI-1 renal: entry COC(=O)N/N=C(\c1ccccc1)c1ccc(OC)cc1 , its TGI = > 100 µM

Item Cc1cccc(C)c1N1C(=O)C2c3[nH]c4ccccc4c3C3CCC(C(C)(C)C)CC3C2C1=O (centres undefined) was tested on CAKI-1 renal; the reported TGI is 26.8 µM

The compound Cc1ccc(S(=O)(=O)Oc2nc3nc4ccccc4nc3nc2OS(=O)(=O)c2ccc(C)cc2)cc1 on CAKI-1 renal: TGI was > 100 µM

Test item c1ccc([P+](c2ccccc2)(c2ccccc2)c2ccc(-c3ccc([P+](c4ccccc4)(c4ccccc4)c4ccccc4)cc3)cc2)cc1 ; CAKI-1 renal; reported TGI was > 100 µM

CAKI-1 renal data for CCOC(=O)C(NC(=O)c1cccc(Cl)c1)(N1CCN(c2cc3c(cc2F)c(=O)c(C(=O)O)cn3C2CC2)CC1)C(F)(F)F (centres undefined) ; its TGI: 36.2 µM

Noted TGI for CN(C)CCCN1c2ccc([N+](=O)[O-])cc2CCc2cc([N+](=O)[O-])ccc21 , tested on CAKI-1 renal: 29.1 µM

CAKI-1 renal assay, compound CC1CC(c2ccc(Cl)c(Cl)c2)=Nc2ccccc2S1 (centres undefined) , recorded TGI = > 100 µM

Summary line: O=S(=O)(Oc1ccc2ccccc2c1-c1c(OS(=O)(=O)C(F)(F)F)ccc2ccccc12)C(F)(F)F , CAKI-1 renal, reported TGI = > 100 µM

Item COC(=O)C1(O)c2ccccc2N=C2C1CCN2C (centres undefined) ; assay system CAKI-1 renal; TGI reported as > 100 µM

The compound COC(=O)c1ccc(/C=C2\Oc3cc(O)ccc3C2=O)cc1 , when measured on CAKI-1 renal, yielded TGI of > 100 µM

Form: item COc1ccc(C(=C2C(=O)N(c3ccccc3)C(=O)C2=C(C)C)c2ccc(OC)cc2)cc1 ; test system CAKI-1 renal; TGI: 42 µM

Item N=c1oc2ccccc2cc1C(=O)Nc1nccs1 ; assay system CAKI-1 renal; TGI reported as > 88.1 µM

Known value: CAKI-1 renal TGI of the compound O=C1NC(=N[C@H](CO)c2ccccc2)S/C1=C\c1ccc2ncccc2c1 equals > 16 µM

Tested system CAKI-1 renal; TGI recorded for O=C(Nc1ccccc1)Nc1ccc(Cl)c(Cl)c1 was 24.7 µM

TGI on CAKI-1 renal for OCCCCCCCCCCCOc1ccc(C2OCC3(CC=CCC3)CO2)cc1 (centres undefined) is 31.1 µM

ClCCCCOC1CCCCO1 (centres undefined) tested on CAKI-1 renal gave TGI: > 100 µM

Bench note, CAKI-1 renal: COc1ccc2c(c1)CCc1c-2n(CCN2CCOCC2)c2ccc(OC)cc12 , TGI reads > 100 µM

Tested on CAKI-1 renal, the item C[N+](C)(C)CCN[N+]1(C)CCCc2ccccc21 (centres undefined) showed TGI equal to > 100 µM

Entry N[C@@H](CSSC[C@H](N)C(=O)N1CCn2cc(-c3ccccc3)nc2[C@@H]1CC1CCCCC1)C(=O)N1CCn2cc(-c3ccccc3)nc2[C@@H]1CC1CCCCC1 , CAKI-1 renal data, TGI value: 4.6 µM

Let me check: CCOC(=O)CC(=O)CSc1c(-c2ccccc2)c(=O)n(-c2ccccc2)c(=S)n1-c1ccccc1 , system CAKI-1 renal, measured TGI is > 100 µM

Given the compound CCN1C(=O)N(CC)C2C1NN=c1s/c(=C\c3ccc(OC)cc3)c(=O)n12 (centres undefined) and test system CAKI-1 renal, the measured TGI is > 80.2 µM

Query COc1ccc(/C=C2\CCc3cc(OC)c(OC)cc3C2=O)cc1 on CAKI-1 renal; TGI returned: > 10 µM

Lab note: compound N=c1oc2ccc(Cl)cc2cc1C(N)=O tested on CAKI-1 renal; recorded TGI was > 100 µM

Sample FC(F)(F)c1ccc(NCc2nc3ccccc3[nH]2)cc1 , system: CAKI-1 renal. Its TGI is 49.4 µM

Value (TGI, CAKI-1 renal) for record CC1(C=O)CCC23COC4(CCC5C6(C)CCC(OC7OCC(OC8OC(CO)C(O)C(OC9OC(CO)C(O)C(O)C9O)C8OC8OCC(O)C(O)C8O)C(O)C7OC7OC(CO)C(O)C(O)C7O)C(C)(C)C6CCC5(C)C4(C)CC2O)C3C1 (centres undefined) = 2.32 µM

Measured TGI (CAKI-1 renal), entry O=c1c2cc(S(=O)(=O)O)ccc2nc(COc2ccc(Oc3ccc(Cl)cc3Cl)cc2)n1C(=S)Nc1ccc(Cl)cc1 : > 100 µM

// TGI (CAKI-1 renal) for CC/C(=N/N=C(N)N)c1ccc(NC(=O)Nc2ccc(/C(CC)=N/N=C(N)N)cc2)cc1 = 39.4 µM

Field TGI (CAKI-1 renal), entry Cc1c(N=Nc2ccc(Cl)cc2)c(C)n(C2OC(CO)C(O)C(O)C2O)c(=S)c1C#N (centres undefined) : > 100 µM

Kindly note: CAKI-1 renal, Clc1ccc(-c2nc3ccc4ccccc4c3c3c2CCCC3)cc1 , TGI value reported: > 100 µM

For COc1c(C)c(O)c2c(c1C)OC(c1ccccc1)CC2=O (centres undefined) on CAKI-1 renal, measured TGI was > 100 µM

Field TGI (CAKI-1 renal), entry COC(=O)CCC(NC(=O)OC(C)(C)C)C(=O)NC(Cc1ccc([N+](=O)[O-])cc1)C(=O)NC(CCC(=O)OC)C(=O)OC (centres undefined) (Boc-Glu(OMe)-[Phe(4-NO2)]-Glu(OMe)-OMe; configuration not given here) : > 100 µM

For CSc1nc(Br)nc2ncn(C3CC(Oc4ccc(C)cc4)C(COc4ccc(C)cc4)O3)c12 (centres undefined) on CAKI-1 renal, measured TGI was > 100 µM

TGI of O=C1CC[C@@H](NC(=O)Cc2ccccc2)C(=O)N1 , assay on CAKI-1 renal, is > 100 µM
